Experiment: Stability in PBS pH 7.4 (RP-HPLC, %RCP)
Conditions: PBS pH 7.4, 37 °C, 60 min, n = 3
OBSERVATION TYPE: Stability in PBS (%)

Here's what some known entries look like.
CC1=CC(=O)N(O)CCCC(NC(=O)CCC(=O)O)C(=O)OCCC(C)=CC(=O)N(O)CCCC(NC(=O)CCC(=O)O)C(=O)OCCC(C)=CC(=O)N(O)CCCC(NC(=O)CCC(=O)O)C(=O)OCC1 (stereo not shown) (68Ga complex, metal not drawn) [FSC(suc)3, trisuccinyl(FSC)] = 99.77 ± 0.12%
CCCC(=O)NC1CCCN(O)C(=O)C=C(C)CCOC(=O)C(NC(C)=O)CCCN(O)C(=O)C=C(C)CCOC(=O)C(NC(C)=O)CCCN(O)C(=O)C=C(C)CCOC1=O (stereo not shown) (68Ga complex, metal not drawn) = 99.85 ± 0.08%
CC(=O)NC1CCCN(O)C(=O)C=C(C)CCOC(=O)C(NC(C)=O)CCCN(O)C(=O)C=C(C)CCOC(=O)C(NC(C)=O)CCCN(O)C(=O)C=C(C)CCOC1=O (stereo not shown) (68Ga complex, metal not drawn) = 99.83 ± 0.13%

Asked: Suppose we examine the compound CCC(=O)NC1CCCN(O)C(=O)C=C(C)CCOC(=O)C(NC(=O)CC)CCCN(O)C(=O)C=C(C)CCOC(=O)C(NC(=O)CC)CCCN(O)C(=O)C=C(C)CCOC1=O (stereo not shown) (68Ga complex, metal not drawn) ; what Stability in PBS (%) value has been reported?
Given back: 99.86 ± 0.04%

---

Tested on: A. fumigatus wildtype (ATCC46645)
Assay: In vitro uptake assay in A. fumigatus
Format: cell-based, Aspergillus fumigatus
Conditions: iron-starvation condition, 45 min, normalized to [^68Ga]TAFC uptake from the same experiment, n = 3
OBSERVATION TYPE: uptake ratio to [^68Ga]TAFC
Answers are plain numbers.

Worked examples follow.
CC(=O)NC1CCCN(O)C(=O)C=C(C)CCOC(=O)C(NC(C)=O)CCCN(O)C(=O)C=C(C)CCOC(=O)C(NC(C)=O)CCCN(O)C(=O)C=C(C)CCOC1=O (stereo not drawn) (68Ga complex, metal not drawn) [TAFC, triacetylfusarinine C] = 1
CC(=O)NC1CCCN(O)C(=O)C=C(C)CCOC(=O)C(NC(=O)CN)CCCN(O)C(=O)C=C(C)CCOC(=O)C(NC(C)=O)CCCN(O)C(=O)C=C(C)CCOC1=O (stereo not drawn) (68Ga complex, metal not drawn) [DAFC(gly)] = 0.89
CCC(=O)NC1CCCN(O)C(=O)C=C(C)CCOC(=O)C(NC(C)=O)CCCN(O)C(=O)C=C(C)CCOC(=O)C(NC(C)=O)CCCN(O)C(=O)C=C(C)CCOC1=O (stereo not drawn) (68Ga complex, metal not drawn) [DAPFC] = 0.99

Dear reader, for each entry below, please note its uptake ratio to [^68Ga]TAFC.
1. CC(=O)NC1CCCN(O)C(=O)C=C(C)CCOC(=O)C(NC(=O)c2ccccc2)CCCN(O)C(=O)C=C(C)CCOC(=O)C(NC(C)=O)CCCN(O)C(=O)C=C(C)CCOC1=O (stereo not drawn) (68Ga complex, metal not drawn) [DABzFC]
2. CC(=O)NC1CCCN(O)C(=O)C=C(C)CCOC(=O)C(NC(=O)CN)CCCN(O)C(=O)C=C(C)CCOC(=O)C(NC(=O)CN)CCCN(O)C(=O)C=C(C)CCOC1=O (stereo not drawn) (68Ga complex, metal not drawn) [MAFC(gly)2]

Given back:
0.53
0.03

Could you report uptake ratio to [^68Ga]TAFC for every entry in the following list?
1. CC(=O)NC1CCCN(O)C(=O)C=C(C)CCOC(=O)C(NC(C)=O)CCCN(O)C(=O)C=C(C)CCOC(=O)C(N)CCCN(O)C(=O)C=C(C)CCOC1=O (stereo not drawn) (68Ga complex, metal not drawn) [DAFC]
2. CC(=O)NC1CCCN(O)C(=O)C=C(C)CCOC(=O)C(NC(=O)CCC(=O)O)CCCN(O)C(=O)C=C(C)CCOC(=O)C(NC(C)=O)CCCN(O)C(=O)C=C(C)CCOC1=O (stereo not drawn) (68Ga complex, metal not drawn) [DAFC(suc)]
3. CC(=O)NC1CCCN(O)C(=O)C=C(C)CCOC(=O)C(N)CCCN(O)C(=O)C=C(C)CCOC(=O)C(N)CCCN(O)C(=O)C=C(C)CCOC1=O (stereo not drawn) (68Ga complex, metal not drawn) [MAFC]
4. CC1=CC(=O)N(O)CCCC(NC(=O)CCC(=O)O)C(=O)OCCC(C)=CC(=O)N(O)CCCC(NC(=O)CCC(=O)O)C(=O)OCCC(C)=CC(=O)N(O)CCCC(NC(=O)CCC(=O)O)C(=O)OCC1 (stereo not drawn) (68Ga complex, metal not drawn) [FSC(suc)3, trisuccinyl(FSC)]

Given back:
1. 0.56
2. 0.33
3. 0.26
4. 0.01
